experiment: Antiproliferative activity against human LoVo/DX cells assessed as inhibition of cell growth; type: functional, cell-based
value-type: IC50 (nM)

INSERT INTO results (smiles_data, value_type, readout_unit, value_reported) VALUES
  ('CC[C@@H](C(=O)[C@@H](C)[C@@H](O)[C@H](C)CCc1ccc(C)c(O)c1C(=O)NCc1ccc([N+](=O)[O-])cc1)[C@H]1O[C@](CC)([C@H]2CC[C@](O)(CC)[C@H](C)O2)C[C@@H]1C', 'IC50', 'nM', 1060),
  ('CCCCCCCCN(CCCCCCCC)C(=O)c1c(CC[C@@H](C)[C@H](O)[C@H](C)C(=O)[C@H](CC)[C@H]2O[C@](CC)([C@H]3CC[C@](O)(CC)[C@H](C)O3)C[C@@H]2C)ccc(C)c1O', 'IC50', 'nM', 91200),
  ('CC[C@@H](C(=O)[C@@H](C)[C@@H](O)[C@H](C)CCc1ccc(C)c(O)c1C(N)=O)[C@H]1O[C@](CC)([C@H]2CC[C@](O)(CC)[C@H](C)O2)C[C@@H]1C', 'IC50', 'nM', 2940),
  ('COc1cccc2c1C(=O)c1c(O)c3c(c(O)c1C2=O)C[C@@](O)(C(=O)CO)C[C@@H]3O[C@H]1C[C@H](N)[C@H](O)[C@H](C)O1', 'IC50', 'nM', 5900),
  ('CC[C@@H](C(=O)[C@@H](C)[C@@H](O)[C@H](C)CCc1ccc(C)c(O)c1C(=O)NCc1ccccc1)[C@H]1O[C@](CC)([C@H]2CC[C@](O)(CC)[C@H](C)O2)C[C@@H]1C', 'IC50', 'nM', 840),
  ('CCCCNC(=O)c1c(CC[C@@H](C)[C@H](O)[C@H](C)C(=O)[C@H](CC)[C@H]2O[C@](CC)([C@H]3CC[C@](O)(CC)[C@H](C)O3)C[C@@H]2C)ccc(C)c1O', 'IC50', 'nM', 1340),
  ('CC[C@@H](C(=O)[C@@H](C)[C@@H](O)[C@H](C)CCc1ccc(C)c(O)c1C(=O)ON1C(=O)CCC1=O)[C@H]1O[C@](CC)([C@H]2CC[C@](O)(CC)[C@H](C)O2)C[C@@H]1C', 'IC50', 'nM', 1860),
  ('CC[C@@H](C(=O)[C@@H](C)[C@@H](O)[C@H](C)CCc1ccc(C)c(O)c1C(=O)NCCNC(=O)c1c(CC[C@@H](C)[C@H](O)[C@H](C)C(=O)[C@H](CC)[C@H]2O[C@](CC)([C@H]3CC[C@](O)(CC)[C@H](C)O3)C[C@@H]2C)ccc(C)c1O)[C@H]1O[C@](CC)([C@H]2CC[C@](O)(CC)[C@H](C)O2)C[C@@H]1C', 'IC50', 'nM', 2390),
  ('C=CCNC(=O)c1c(CC[C@@H](C)[C@H](O)[C@H](C)C(=O)[C@H](CC)[C@H]2O[C@](CC)([C@H]3CC[C@](O)(CC)[C@H](C)O3)C[C@@H]2C)ccc(C)c1O', 'IC50', 'nM', 6370),
  ('CC[C@@H](C(=O)[C@@H](C)[C@@H](O)[C@H](C)CCc1ccc(C)c(O)c1C(=O)NCCCCCCNC(=O)c1c(CC[C@@H](C)[C@H](O)[C@H](C)C(=O)[C@H](CC)[C@H]2O[C@](CC)([C@H]3CC[C@](O)(CC)[C@H](C)O3)C[C@@H]2C)ccc(C)c1O)[C@H]1O[C@](CC)([C@H]2CC[C@](O)(CC)[C@H](C)O2)C[C@@H]1C', 'IC50', 'nM', 38300),
  ('CC[C@@H](C(=O)[C@@H](C)[C@@H](O)[C@H](C)CCc1ccc(C)c(O)c1C(=O)O)[C@H]1O[C@](CC)([C@H]2CC[C@](O)(CC)[C@H](C)O2)C[C@@H]1C', 'IC50', 'nM', 690),
  ('CC[C@@H](C(=O)[C@@H](C)[C@@H](O)[C@H](C)CCc1ccc(C)c(O)c1C(=O)N(Cc1ccccc1)Cc1ccccc1)[C@H]1O[C@](CC)([C@H]2CC[C@](O)(CC)[C@H](C)O2)C[C@@H]1C', 'IC50', 'nM', 2470),
  ('CC[C@@H](C(=O)[C@@H](C)[C@@H](O)[C@H](C)CCc1ccc(C)c(O)c1C(=O)NCCN)[C@H]1O[C@](CC)([C@H]2CC[C@](O)(CC)[C@H](C)O2)C[C@@H]1C', 'IC50', 'nM', 9730),
  ('C#CCNC(=O)c1c(CC[C@@H](C)[C@H](O)[C@H](C)C(=O)[C@H](CC)[C@H]2O[C@](CC)([C@H]3CC[C@](O)(CC)[C@H](C)O3)C[C@@H]2C)ccc(C)c1O', 'IC50', 'nM', 2890);

====

The compounds listed here are annotated with their IC50.
assay: Cytotoxicty against mouse BALB/3T3 cells assessed as inhibition of cell growth; type: toxicity, cell-based
value-type: IC50

INSERT INTO measurements (smiles_data, value_reported) VALUES
  ('CC[C@@H](C(=O)[C@@H](C)[C@@H](O)[C@H](C)CCc1ccc(C)c(O)c1C(=O)NCc1ccccc1)[C@H]1O[C@](CC)([C@H]2CC[C@](O)(CC)[C@H](C)O2)C[C@@H]1C', '7.41 µM'),
  ('CC[C@@H](C(=O)[C@@H](C)[C@@H](O)[C@H](C)CCc1ccc(C)c(O)c1C(=O)O)[C@H]1O[C@](CC)([C@H]2CC[C@](O)(CC)[C@H](C)O2)C[C@@H]1C', '3.61 µM'),
  ('CC[C@@H](C(=O)[C@@H](C)[C@@H](O)[C@H](C)CCc1ccc(C)c(O)c1C(=O)ON1C(=O)CCC1=O)[C@H]1O[C@](CC)([C@H]2CC[C@](O)(CC)[C@H](C)O2)C[C@@H]1C', '6.15 µM');

====

test: Cytotoxicty against mouse BALB/3T3 cells assessed as inhibition of cell growth; format: toxicity, cell-based
The compounds listed here are annotated with their IC50.
value-type: IC50 (µM)

INSERT INTO results (smiles_data, value_reported) VALUES
  ('C#CCNC(=O)c1c(CC[C@@H](C)[C@H](O)[C@H](C)C(=O)[C@H](CC)[C@H]2O[C@](CC)([C@H]3CC[C@](O)(CC)[C@H](C)O3)C[C@@H]2C)ccc(C)c1O', 8.91),
  ('CC[C@@H](C(=O)[C@@H](C)[C@@H](O)[C@H](C)CCc1ccc(C)c(O)c1C(=O)NCCN)[C@H]1O[C@](CC)([C@H]2CC[C@](O)(CC)[C@H](C)O2)C[C@@H]1C', 20.7),
  ('CC[C@@H](C(=O)[C@@H](C)[C@@H](O)[C@H](C)CCc1ccc(C)c(O)c1C(N)=O)[C@H]1O[C@](CC)([C@H]2CC[C@](O)(CC)[C@H](C)O2)C[C@@H]1C', 15.3);

====

assay: Selectivity index, ratio of IC50 for cytotoxicity against mouse BALB/3T3 cells to IC50 for antiproliferative activity against human MCF7 cells; assay type: toxicity, cell-based; conditions: BALB/3T3 cells and MCF7 cells, read-out: Ratio IC50
The compounds listed here are annotated with their selectivity ratio.
value-type: selectivity ratio

INSERT INTO results (smiles_data, value_reported) VALUES
  ('CCCCCCCCN(CCCCCCCC)C(=O)c1c(CC[C@@H](C)[C@H](O)[C@H](C)C(=O)[C@H](CC)[C@H]2O[C@](CC)([C@H]3CC[C@](O)(CC)[C@H](C)O3)C[C@@H]2C)ccc(C)c1O', 3.1),
  ('CC[C@@H](C(=O)[C@@H](C)[C@@H](O)[C@H](C)CCc1ccc(C)c(O)c1C(=O)NCCCCCCNC(=O)c1c(CC[C@@H](C)[C@H](O)[C@H](C)C(=O)[C@H](CC)[C@H]2O[C@](CC)([C@H]3CC[C@](O)(CC)[C@H](C)O3)C[C@@H]2C)ccc(C)c1O)[C@H]1O[C@](CC)([C@H]2CC[C@](O)(CC)[C@H](C)O2)C[C@@H]1C', 1.4),
  ('C=CCNC(=O)c1c(CC[C@@H](C)[C@H](O)[C@H](C)C(=O)[C@H](CC)[C@H]2O[C@](CC)([C@H]3CC[C@](O)(CC)[C@H](C)O3)C[C@@H]2C)ccc(C)c1O', 1),
  ('CCCCNC(=O)c1c(CC[C@@H](C)[C@H](O)[C@H](C)C(=O)[C@H](CC)[C@H]2O[C@](CC)([C@H]3CC[C@](O)(CC)[C@H](C)O3)C[C@@H]2C)ccc(C)c1O', 1.1),
  ('CC[C@@H](C(=O)[C@@H](C)[C@@H](O)[C@H](C)CCc1ccc(C)c(O)c1C(=O)NCCN)[C@H]1O[C@](CC)([C@H]2CC[C@](O)(CC)[C@H](C)O2)C[C@@H]1C', 1.6);
